B1: ZNF8 (parent)
chain: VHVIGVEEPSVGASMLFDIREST

Variants of: B1
Experiment: protein stability index of a GFP-peptide fusion (GPS, HEK-293T) (PSI 1-6); higher = more stable;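 note: lentivirally expressed fusions sorted by FACS into six bins by GFP to DsRed ratio, PSI derived from sequencing read proportions per bin multiplied by bin number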
Settings: c terminus: native
Short version: protein stability index at least 3 is TRUE, less is FALSE.

Example entries and their recorded answers appear below.
{"columns": ["sequence", "category.label"],
 "data": [
  ["VHVIGVEEPSVGATMLFDIREST [S14T]", "FALSE"],
  ["VHVIGVEEPSVGASMLFGIREST [D18G]", "FALSE"],
  ["VHVIGVEEPLVGASMLFDIREST [S10L]", "FALSE"],
  ["VHVIGVEPPSVGASMLFDIREST [E8P]", "FALSE"],
  ["VHVIGVEDPSVGASMLFDIREST [E8D]", "FALSE"]
]}

Query: Exam item: decide whether the reported protein stability index for VHVIGVEEPSVGASMLFEIREST [D18E] is at least 3.
Reply: FALSE

Query: Say whether VHVIGVEEPSVGASMLFDNREST [I19N] shows protein stability index of 3 or more.
Reply: TRUE

Query: I'd appreciate it if you could say whether VHVIGVEEPSVGACMLFDIREST [S14C] has protein stability index at least equal to 3.
Reply: FALSE

Query: Determine whether measured protein stability index meets or exceeds 3 for VHVIGVEEASVGASMLFDIREST [P9A]
Reply: FALSE

Query: Evaluate CHVIGVEEPSVGASMLFDIREST [V1C] : protein stability index at minimum 3?
Reply: FALSE

Query: Assess whether reported protein stability index for VHVIGVEEPSVGHSMLFDIREST [A13H] sits at 3 or higher.
Reply: FALSE

Query: Does protein stability index meet or surpass 3 for VHVIGVEEPSVGAHMLFDIREST [S14H] ?
Reply: FALSE

Query: Does the reported protein stability index for VHVIGVESPSVGASMLFDIREST [E8S] fall at or above the 3 mark?
Reply: FALSE

Query: Confirm if protein stability index reported for the variant VHVEGVEEPSVGASMLFDIREST [I4E] is 3 or above.
Reply: TRUE

Query: # check: protein stability index of VHVIGVEERSVGASMLFDIREST [P9R] is greater than or equal to 3
Reply: FALSE

Query: Can VHVIGVEEPSVGASMLFDIREPT [S22P] be said to have protein stability index at or above 3?
Reply: FALSE

Query: In plain terms: is recorded protein stability index at least 3 for VHVIGVEEPSFGASMLFDIREST [V11F] ?
Reply: FALSE

Query: Decide: is the reported value of protein stability index for VHVIGVEQPSVGASMLFDIREST [E8Q] equal to or greater than 3?
Reply: FALSE

Query: Given VHVIGVEEPSVGASMLWDIREST [F17W] , state whether its protein stability index is at least 3.
Reply: FALSE

Query: Is protein stability index at least 3? Consider VHVIGVEEPSVGAVMLFDIREST [S14V]
Reply: TRUE

Query: Kindly determine if protein stability index recorded for VQVIGVEEPSVGASMLFDIREST [H2Q] is above or exactly 3.
Reply: FALSE

Query: Could you please find out whether VHVITVEEPSVGASMLFDIREST [G5T] has protein stability index that meets 3 or exceeds it?
Reply: FALSE

Query: Reported protein stability index reaches at least 3 for VHKIGVEEPSVGASMLFDIREST [V3K] ?
Reply: TRUE

Query: Check this variant for protein stability index at or above 3: VHVIGVEEPHVGASMLFDIREST [S10H]
Reply: FALSE

Query: Is protein stability index for VHVIGVEGPSVGASMLFDIREST [E8G] at or above 3?
Reply: FALSE

Query: Given the entry FHVIGVEEPSVGASMLFDIREST [V1F] , answer whether its protein stability index meets or surpasses 3.
Reply: FALSE

Query: Could you please find out whether VHVIGVEEPSVGASMAFDIREST [L16A] has protein stability index that meets 3 or exceeds it?
Reply: FALSE

Query: protein stability index >= 3 for VHVTGVEEPSVGASMLFDIREST [I4T] ?
Reply: TRUE

Query: Answer whether protein stability index of VHVIGVEEPSVGASMLFDIREYT [S22Y] is greater than or equal to 3.
Reply: FALSE

Query: Check if protein stability index >= 3 (inclusive). Item: VHVIGFEEPSVGASMLFDIREST [V6F]
Reply: FALSE

Query: Does VHVIGVEEPSVGASMLFDIRCST [E21C] have a reported protein stability index of at least 3?
Reply: FALSE

Query: Identify whether the reported protein stability index of the following variant is 3 or greater: VHVIGVEEPSVGASMLSDIREST [F17S]
Reply: TRUE

Query: Reported protein stability index at or above 3? VHVIGVEEPSVGASMLFDCREST [I19C]
Reply: FALSE

Query: Is it the case that VHVIGVEEPSVGASMLFDQREST [I19Q] has protein stability index reaching or exceeding 3?
Reply: TRUE

Query: Hi, just wondering whether VHVIGVEEPSVGASCLFDIREST [M15C] shows protein stability index of 3 or higher.
Reply: FALSE

Query: API: above_or_equal(metric=protein stability index, cutoff=3) for item VHVIGVEEPSVGASMLFDIREAT [S22A]
Reply: FALSE
